molecular target: Axl (Homo sapiens); construct: endogenous in cells; host or cells: HeLa cells; assay: Phospho-Akt in-cell Western assay; type: cell-based; conditions: Hela cells, stimulated by Axl-antibody cross-linking, phospho-Akt chemiluminescence; Table 1, formula (Ia)
Sequence (P30530 26-894): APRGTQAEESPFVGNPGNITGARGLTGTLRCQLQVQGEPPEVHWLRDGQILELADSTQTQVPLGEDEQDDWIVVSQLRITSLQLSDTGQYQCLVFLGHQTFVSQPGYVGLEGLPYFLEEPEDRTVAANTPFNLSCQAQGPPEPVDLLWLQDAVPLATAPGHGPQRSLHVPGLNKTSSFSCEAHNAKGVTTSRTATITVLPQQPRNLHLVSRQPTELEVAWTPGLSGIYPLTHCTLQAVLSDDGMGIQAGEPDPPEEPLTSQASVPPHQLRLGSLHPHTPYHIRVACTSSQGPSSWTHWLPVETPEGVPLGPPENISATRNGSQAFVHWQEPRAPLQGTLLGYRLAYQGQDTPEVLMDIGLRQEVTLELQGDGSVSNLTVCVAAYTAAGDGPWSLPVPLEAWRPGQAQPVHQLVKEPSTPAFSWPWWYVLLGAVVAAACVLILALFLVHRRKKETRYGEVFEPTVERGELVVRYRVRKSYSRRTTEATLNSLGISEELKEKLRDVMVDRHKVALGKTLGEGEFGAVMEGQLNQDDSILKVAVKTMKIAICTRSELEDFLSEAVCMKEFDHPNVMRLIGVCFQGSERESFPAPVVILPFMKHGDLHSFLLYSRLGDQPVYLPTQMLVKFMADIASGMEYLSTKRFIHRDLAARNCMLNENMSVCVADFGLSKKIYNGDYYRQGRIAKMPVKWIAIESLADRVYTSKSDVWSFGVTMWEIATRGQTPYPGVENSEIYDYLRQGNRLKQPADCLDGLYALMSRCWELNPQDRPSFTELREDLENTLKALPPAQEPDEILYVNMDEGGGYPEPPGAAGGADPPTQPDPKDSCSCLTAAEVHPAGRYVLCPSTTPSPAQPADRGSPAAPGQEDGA
pIC50: −log10 of the molar value.
measuredQuantity: pIC50

Look over these answered cases.
> print(dat)
                                   molecule  measuredquantity  result
1  Nc1nc(Nc2ccc3c(c2)CC[C@@H](N(CC2CC2)CC2CC2)CC3)nn1-c1cc2c(nn1)-c1ccccc1CCC2 [Compound 16]             pIC50  > 6.00
2  CC(C)(C)CN[C@H]1CCc2ccc(Nc3nc(N)n(-c4cc5c(nn4)-c4ccccc4CCC5)n3)cc2CC1 [Compound 34]             pIC50  > 6.00
3  CC(C)(C)OC(=O)N[C@H]1CCc2ccc(Nc3nc(N)n(-c4cc5c(nn4)-c4cccnc4CCC5)n3)cc2CC1 [Compound 44]             pIC50  < 4.70

Req: Give pIC50 (Axl (Homo sapiens)) of the following molecule: Nc1nc(Nc2ccc3c(c2)CCC(N2CCC(F)(F)CC2)CC3)nn1-c1cc2c(nn1)-c1ccccc1CCC2 (stereo not shown) [Compound 3]
Resp: 5.00 to 6.00

Req: Give pIC50 (Axl (Homo sapiens)) of the following molecule: CC(N[C@H]1CCc2ccc(Nc3nc(N)n(-c4cc5c(nn4)-c4ccccc4CCC5)n3)cc2CC1)C(C)(C)C (stereo partly shown) [Compound 25]
Resp: 5.00 to 6.00

Req: Give pIC50 (Axl (Homo sapiens)) of the following molecule: Nc1nc(Nc2ccc3c(c2)CC[C@@H](NC2CCC2)CC3)nn1-c1cc2c(nn1)-c1cccnc1CCC2 [Compound 52]
Resp: > 6.00

Req: Give pIC50 (Axl (Homo sapiens)) of the following molecule: Nc1nc(Nc2ccc3c(c2)CC[C@@H](NC2CCCC2)CC3)nn1-c1cc2c(nn1)-c1ccccc1CCC2 [Compound 22]
Resp: > 6.00
